target_system: M. musculus (heart) complex I (Mus musculus, UniProt P03888+Q91WD5+Q9DC70)
Sequence (Q91WD5 34-463): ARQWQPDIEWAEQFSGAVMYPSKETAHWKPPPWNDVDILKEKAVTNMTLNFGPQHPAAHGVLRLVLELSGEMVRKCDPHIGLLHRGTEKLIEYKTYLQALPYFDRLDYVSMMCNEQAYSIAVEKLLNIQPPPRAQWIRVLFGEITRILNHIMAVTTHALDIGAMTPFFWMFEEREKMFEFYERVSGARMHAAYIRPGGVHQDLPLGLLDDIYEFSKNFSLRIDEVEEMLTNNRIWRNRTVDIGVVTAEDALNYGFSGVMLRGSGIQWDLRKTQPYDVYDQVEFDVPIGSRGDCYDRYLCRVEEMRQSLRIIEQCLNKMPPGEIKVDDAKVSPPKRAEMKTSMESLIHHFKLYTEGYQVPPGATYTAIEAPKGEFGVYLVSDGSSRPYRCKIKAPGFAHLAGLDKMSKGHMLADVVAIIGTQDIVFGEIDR
Sequence (Q9DC70 36-224): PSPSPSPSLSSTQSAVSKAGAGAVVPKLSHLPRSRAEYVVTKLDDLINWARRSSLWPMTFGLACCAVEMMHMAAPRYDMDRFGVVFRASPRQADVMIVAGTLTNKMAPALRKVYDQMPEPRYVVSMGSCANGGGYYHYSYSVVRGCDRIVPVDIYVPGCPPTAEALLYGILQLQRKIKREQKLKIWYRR
Sequence (P03888 whole entry): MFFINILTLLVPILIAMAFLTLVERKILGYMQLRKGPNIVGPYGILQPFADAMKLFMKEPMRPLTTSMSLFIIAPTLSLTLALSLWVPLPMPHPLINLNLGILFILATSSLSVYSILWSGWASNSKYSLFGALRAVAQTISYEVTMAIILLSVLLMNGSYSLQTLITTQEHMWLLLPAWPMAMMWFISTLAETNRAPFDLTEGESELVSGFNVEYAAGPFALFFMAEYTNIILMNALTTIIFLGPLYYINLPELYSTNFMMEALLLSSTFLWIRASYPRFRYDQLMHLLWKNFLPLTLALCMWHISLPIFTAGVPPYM
method_description: biochemical
Type: biochemical
conditions: M. musculus; dose 0.013 µM; Mean of replicates; read-out: Complex I activity, dose-response data
Documented activity at 0.013 µM across a set of compounds
I only need the number, in %, no unit after it.

Examples with their reported activity at 0.013 µM follow.
COc1cc2c(cc1OC)C(/C=C/c1ccc(N(C)C)cc1)=NCC2 :: 106
COc1cc2c(cc1OC)C(c1ccc(-c3ccc(Cl)c(Cl)c3)o1)=NCC2 :: 104
COc1cc2c(cc1OC)C(C(C)c1ccc(CC(C)C)cc1)=NCC2 (stereo not shown) :: 106

Could you now look at the following compound, please?
IN: What value of activity at 0.013 µM has been recorded for this entry: CC(C)Cc1ccc(C(C)c2nc3ccccc3n2C)cc1 (stereo not shown)
OUT: 104

====

target_system: C. elegans (N2) complex I (NADH:ubiquinone oxidoreductase) (Caenorhabditis elegans, UniProt P24887+Q93873+Q94360)
Sequence (Q94360 17-199): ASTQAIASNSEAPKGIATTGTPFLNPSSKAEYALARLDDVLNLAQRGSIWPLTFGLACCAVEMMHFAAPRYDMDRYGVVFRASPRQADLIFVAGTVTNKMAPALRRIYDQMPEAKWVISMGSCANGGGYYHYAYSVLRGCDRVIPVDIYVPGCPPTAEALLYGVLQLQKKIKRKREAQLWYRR
Sequence (P24887 whole entry): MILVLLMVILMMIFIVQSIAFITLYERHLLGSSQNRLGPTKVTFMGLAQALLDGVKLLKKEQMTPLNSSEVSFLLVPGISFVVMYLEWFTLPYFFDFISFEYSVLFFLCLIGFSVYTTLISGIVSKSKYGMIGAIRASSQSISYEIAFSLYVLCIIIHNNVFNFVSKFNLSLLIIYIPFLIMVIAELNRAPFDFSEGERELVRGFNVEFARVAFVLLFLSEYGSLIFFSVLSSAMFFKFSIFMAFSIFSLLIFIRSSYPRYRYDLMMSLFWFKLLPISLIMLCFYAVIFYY
Sequence (Q93873 31-482): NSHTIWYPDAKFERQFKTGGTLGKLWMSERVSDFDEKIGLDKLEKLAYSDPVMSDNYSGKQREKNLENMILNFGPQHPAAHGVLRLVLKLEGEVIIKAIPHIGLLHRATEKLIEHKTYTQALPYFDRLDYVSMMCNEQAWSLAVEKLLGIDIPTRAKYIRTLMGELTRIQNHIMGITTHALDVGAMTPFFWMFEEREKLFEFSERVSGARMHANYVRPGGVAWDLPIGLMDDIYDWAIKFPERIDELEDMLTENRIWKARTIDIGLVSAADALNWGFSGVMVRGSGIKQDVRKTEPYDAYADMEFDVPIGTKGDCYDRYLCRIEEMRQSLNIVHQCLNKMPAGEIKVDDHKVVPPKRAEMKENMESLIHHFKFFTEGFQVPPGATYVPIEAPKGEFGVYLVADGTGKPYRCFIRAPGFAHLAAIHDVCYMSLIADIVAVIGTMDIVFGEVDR
method_description: biochemical
Type: biochemical
conditions: Dose 0.063 µM; read-out: C. elegans mitochondrial complex I activity
Hi, to clarify the labels: Satisfied covers activity at 0.063 µM from 90% upward, Not satisfied covers anything below 90%.

Cc1ccc(OCCn2cnc3ccccc32)c(C)c1 :: Satisfied

IN: Please tell me: is the compound FC(F)(F)c1cccc(OCCCCn2cnc3ccccc32)c1 at or over 90% in terms of activity at 0.063 µM?
OUT: Satisfied

IN: Please tell me: is the compound Brc1ccccc1OCCCCn1cnc2ccccc21 at or over 90% in terms of activity at 0.063 µM?
OUT: Not satisfied

IN: Please tell me: is the compound Nc1nc2ccccc2n1CCOc1ccc(Br)cc1 at or over 90% in terms of activity at 0.063 µM?
OUT: Not satisfied

IN: Please tell me: is the compound Cc1ccc(SCCCn2cnc3ccccc32)cc1 at or over 90% in terms of activity at 0.063 µM?
OUT: Not satisfied

IN: Please tell me: is the compound CCc1cc(OCCn2cnc3ccccc32)ccc1Cl at or over 90% in terms of activity at 0.063 µM?
OUT: Not satisfied

====

target_system: C. elegans (N2) complex I (NADH:ubiquinone oxidoreductase) (Caenorhabditis elegans, UniProt P24887+Q93873+Q94360)
method_description: biochemical
Format: biochemical
conditions: Dose 0.625 µM; read-out: C. elegans mitochondrial complex I activity
reported_metric: activity at 0.625 µM (%)
I only need the number, in %, no unit after it.

Examples with their reported activity at 0.625 µM follow.
Nc1nc2ccccc2n1CCOc1ccc(Br)cc1 [Compound 5842535] :: 83.9
Cc1ccc(OCCn2cnc3ccccc32)c(C)c1 [Compound 7706808] :: 70.9
Cc1cccc(OCCn2c(C)nc3ccccc32)c1 [Compound 6285199] :: 53.7

Could you now look at the following molecule, please?
IN: What value of activity at 0.625 µM has been recorded for this entry: Nc1nc2ccccc2n1Cc1ccc(Cl)cc1 [Compound 5652765]
OUT: 49.3

====

method_description: in vitro
conditions: human, HEK293 viability
reported_metric: viability at 2 days, 0.8 µM
Write the quantity with the unit trailing the number.

IN: What value of viability at 2 days, 0.8 µM has been recorded for this entry: Fc1ccc(C(c2ccc(F)cc2)N2CCN(C/C=C/c3ccccc3)CC2)cc1
OUT: 81.5%
